# target-or-test-system: T1, hK1 (human tissue kallikrein 1), recombinant (human, UniProt P06870 25-262)
# T1 construct: Expressed in P. pastoris from KLK1 cDNA and purified; enzymatically active; also called KLK1; Recombinant (Pichia) Kallikrein
# experiment-notes: SPR
parameter: kon (M⁻¹ s⁻¹)
Write the number in M⁻¹ s⁻¹ without appending the unit.

Example binders with recorded kon:
M0115-F08 (Fab, V domains shown) VH: EVQLLESGGGLVQPGGSLRLSCAASGFTFSHYVMVWVRQAPGKGLEWVSSIYPSGGMTVYADSVKGRFTISRDNSKNTLYLQMNSLRAEDTAVYYCARRGIANSFNIWGQGTMVTVSS VL: AQSELTQPASVSGSPGQSITISCTGTSSDVGGYNYVSWYQQHPGKAPKLMIYEVSNRPSGVSNRFSGSKSGNTASLTISGLQAEDEADYYCSSYTSSSTWVFGGGTKLTVLG : 484000
M0117-F04 (Fab, V domains shown) VH: EVQLLESGGGLVQPGGSLRLSCAASGFTFSMYVMNWVRQAPGKGLEWVSRIGSSGGGTLYADSVKGRFTISRDNSKNTLYLQMNSLRAEDTAVYYCARVSVYRIRNYYYYAMDVWGQGTTVTVSS VL: DIQMTQSPSSLSASVGDRVTITCRASQGIGNYLAWYQQKPGKAPNLLIYKTSNLQSGVPSRFRGSGSGTEFTLTITSVQPDDFATYFCQRYDSYSQYIFGQGTKLETKR : 298000
M0098-C10 (Fab, V domains shown) VH: EVQLLESGGGLVQPGGSLRLSCAASGFTFSFYSMMWVRQAPGKGLEWVSGISSSGGTTKYADSVKGRFTISRDNSKNTLYLQMNSLRAEDTAVYYCARGGTNYDYVWGSYRSHYYYYGMDVWGQGTTVTVSS VL: DIQMTQSPSSLSASVGDRVTITCRASHNIYTSLNWLQQKPGKAPKLLIYGASTLENGVPSRFSGSASGTDFTLTISSLQPEDSATYYCQQSYTSVTFGQGTKLEIRR : 120000
M0106-D06 (Fab, V domains shown) VH: EVQLLESGGGLVQPGGSLRLSCAASGFTFSYYLMGWVRQAPGKGLEWVSSIGPSGGTTKYADSVKGRFTISRDNSKNTLYLQMNSLRAEDTAVYYCARRGLGAAFDYWGQGTLVTVSS VL: DIQMTQSPSSVSASVGDRVTITCRASQGISSWLAWYQQKPGKAPKLLIYAASSLQSGVPSRFSGSGSGTDFTLTISSLQPEDFATYYCQQANSFPYTFGQGTKLEIKR : 154000
M0139-F04 (Fab, V domains shown) VH: EVQLLESGGGLVQPGGSLRLSCAASGFTFSRYYMEWVRQAPGKGLEWVSSISSSGGSTEYADSVKGRFTISRDNSKNTLYLQMNSLRAEDTAVYYCAKDITPGGGSGFRLPKNYYYYGMDVWGQGTTVTVSS VL: DIQMTQSPSSLSASVGDRVTITCRASQAISTNLNWYQQKPGKAPKLLIYAASSLQSGVPSRFIGSGSGTDFTLTISSLHPEDFATYHCQQTFSPPHTFGQGTKVEIQR : 184000
M0093-C10 (Fab, V domains shown) VH: EVQLLESGGGLVQPGGSLRLSCAASGFTFSRYTMEWVRQAPGKGLEWVSVIRPSGGTTMYADSVKGRFTISRDNSKNTLYLQMNSLRAEDMAVYYCARVGVWYGMDVWGQGTTVTVSS VL: DIQITQSPSSLSASVGDRVTITCRASQGISNYLAWYQQKPGKVPKLLIYAASTLQSGVPSRFSGSGSGTDFTLTISSLQPEDFATYYCEQLNSFPHAFGQGTKVEIKR : 333000
M0106-C06 (Fab, V domains shown) VH: EVQLLESGGGLVQPGGSLRLSCAASGFTFSHYTMQWVRQAPGKGLEWVSSIYPSGGATKYADSVKGRFTISRDNSKNTLYLQMNSLRAEDTAMYYCARSGYYYGLDVWGQGTTVTVSS VL: DIQMTQSPATLSASVGDRVTITCRASQSVSRWLAWYQQKPGKAPKLLIYKASTLESGVPSRFSGSGSGTEFTLTISSLQPDDFATYYCQQYGAFGQGTKVEIRR : 628000
M0135-C11 (Fab, V domains shown) VH: EVQLLESGGGLVQPGGSLRLSCAASGFTFSNYSMQWVRQAPGKGLEWVSGIRPSGGSTRYADSVKGRFTISRDNSKNTLYLQMNSLRAEDTAVYYCAVSTGGYYYGMDVWGQGTTVTVSS VL: DIQMTQSPSSVSASVGDRVTITCRASQGISSWLAWYQQKPGKAPKLLIYAASSLQSGVPSRFSGSGSGTDFTLTISSLQPEDFATYYCQQANSFPSLTFGGGTKVEIKR : 337000

Problem: State its kon for this binder: M0092-B12 (Fab, V domains shown) VH: EVQLLESGGGLVQPGGSLRLSCAASGFTFSQYLMAWVRQAPGKGLEWVSSIYPSGGNTNYADSVKGRFTISRDNSKNTLYLQMNSLRAEDTAVYYCARDRSIVPYSSSWYMPRDYYYGMDVWGQGTTVTVSS VL: DIQMTQSPSSLSASVGDRVTITCRASQGISNYLAWYQQKPGKVPKLLIYAASTLQSGVPSRFSGSGSGTDFTLTISSLQPEDFATYYCQQSYSTPYTFGQGTKLEVRR
Result: 141000

Problem: Let me know recorded kon for M0109-A11 (Fab, V domains shown) VH: EVQLLESGGGLVQPGGSLRLSCAASGFTFSNYTMTWVRQAPGKGLEWVSVIYPSGGHTTYADSVKGRFTISRDNSKNTLYLQMNSLRAEDTAMYYCARGGRWFSLDYWGQGTLVTVSS VL: AQSELTQPASVSGSPGQSITISCTGTSSDVGGYNYLSWYQQHPGKAPKLMIYGVSNRPSGVSTRFSGSKSGNTASLTISGLQAEDEADYYCSSYTSTGTRVFGGGTRLTVLG , thanks.
Result: 470000
